# assayed-target: T1, bL4_C36 (biotin-GSGS-C36-NH2, HIV-1 HXB2 Env gp41 HR2 peptide) (HIV-1 (HXB2 strain), N-terminal biotin; C-terminal amide)
# T1 construct: also called C-peptide
# T1 peptide: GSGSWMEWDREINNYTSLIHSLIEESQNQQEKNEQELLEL
# protocol-description: ELISA, bL4_C36 immobilized on neutravidin-coated plates, detection with Penta-His-HRP antibody, A450nm
The following binders are shown together with reported EC50 (read off the curve) values.

Consider the following illustrative entries.
binder: single-chain Alphabody scAB_Env05 (designed binder, Soluble construct with N-terminal His10 tag (pET16b)) MGHHHHHHHHHHSSGHIEGRHMSIEEIQKHIASIQEYIAWIQKEIYRMTGGSGGGSGGGSGGGSGMSIEEIQKQIAAIQKQIAAIQKQIYAMTGGSGGGSGGGSGGGSGMSIEEIQKQILAIMEQIYAIVKQINAMTP
EC50 (read off the curve): ~0.04 µM
--
binder: single-chain Alphabody scAB_Env04 (designed binder, Soluble construct with N-terminal His10 tag (pET16b)) MGHHHHHHHHHHSSGHIEGRHMSIEEIQKPIATIQETIAWIQKTIYGMTGGSGGGSGMSIEEIQKQIAAIQKQIAAIQKQIYAMTGGSGGGSGGGSGGGSGMSIEEIQKQIRAIFEQIVAICKQIIAMTP
EC50 (read off the curve): ~0.02 µM

Query: Return reported EC50 (read off the curve); argument: single-chain Alphabody scAB_Env02 (designed binder, Soluble construct with N-terminal His10 tag (pET16b)) MGHHHHHHHHHHSSGHIEGRHMSIEEIQKPIASIQELIATIQKYIYIMTGGSGGGSGGGSGGGSGMSIEEIQKQIAAIQKQIAAIQKQIYAMTGGSGGGSGGGSGGGSGMSIEEIQKQIQAITEQIIAISKQIIAMTP
Response: ~0.02 µM

Query: Continue with single-chain Alphabody scAB_Env03 (designed binder, expressed soluble in E. coli with an N-terminal His10 tag; not shown: N-terminal 10-histidine tag from pET16b) MGHHHHHHHHHHSSGHIEGRHMSIEEIQKPIATIQEAIAWIQKKIYMMTGGSGGGSGGGSGGGSGMSIEEIQKQIAAIQKQIAAIQKQIYAMTGGSGGGSGGGSGGGSGMSIEEIQKQIVAIMEQIVAIVKQISAMTP
Response: ~0.005 µM
